ASSAY_COMMENT: inhibitors of larval lipid processing in zebrafish, primary screen, whole organism, PED6 fluorescence, gall bladder and intestine (AID 686);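 further: larvae 5 to 7 days old with five fish per well; signal comes from phospholipase A2 cleavage of quenched PED6 carried via bile; overnight exposure to compound and PED6 before scoring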
CONDITION_INFO: Zebrafish larvae PED6 lipid processing, fluorescence scoring; screened at 20 µM (by protocol)
The source made the active and inactive calls.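 How the source made its calls: active means a full or partial loss of lipid-probe fluorescence in the fish gall bladder, intestine or both, judged by eye; inactive means no fluorescence loss, or compound toxic to the fish.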
Respond only with the outcome that fits, drawn from 1 = active, -1 = inactive

COMPOUND	GROUP
Cc1nc(Sc2cccn2C)c(C(F)(F)F)c(=O)[nH]1	-1

Ask | Test call, this compound: CN1C(=O)N(c2ccccc2)C(Nc2nncs2)C1(C)C (configuration not stated)
Reply | -1

Ask | What classification did Cc1ccc(C2/C(=C(/O)c3ccc(OC(C)C)cc3)C(=O)C(=O)N2CCN2CCOCC2)cc1 (configuration not stated) end up with in this test?
Reply | -1

Ask | Which result was noted for this compound in the test: "CSc1nnc2n(C3CCCCC3)c(=O)c3c4c(sc3n12)CCCC4"
Reply | -1

Ask | Called result for "COc1ccc(OC)c2c(N)c(C#N)c(C(F)(F)C(F)(F)F)nc12"
Reply | -1

Ask | GET /call?item= CCn1cc(C(=O)NCC2CCCO2)c(=O)c2cc(F)c(N3CCN(C)CC3)cc21 (configuration not stated) returns the recorded outcome of this test.
Reply | -1

Ask | Tell me the assay call for "CCCCC(=O)Nc1c(O)c2ccccc2[nH]c1=O" please.
Reply | -1

Ask | Would you mind telling me which call this test gave COc1ccc(CCN(C)CCCC(C#N)(c2cc(OC)c(OC)c(OC)c2)C(C)C)cc1OC (configuration not stated) ?
Reply | -1

Ask | Each compound tested received a call. Report the one for "CCOc1cc(CN2CCOCC2)cc(C(C)=O)c1" .
Reply | -1

----------
ASSAY_COMMENT: inhibitors of E-selectin induction by TNFa, primary screen, imaging, HUVEC, immunofluorescence, MLSMR starter and 10KST1 sets (AID 487);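 further: 100% = median nuclei count of all wells on the same plate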
CONDITION_INFO: HUVEC TNFalpha-induced E-selectin immunofluorescence imaging, at 2 µM; measured here: cell number, toxicity
OBSERVATION_TYPE: nuclei count (%)
Entry rule: numbers only, all in %.

Examples with their reported nuclei count follow.
COMPOUND	UNIT_STRING	OBSERVED_VALUE
Cc1ccc(C2C3CN(C(C)C)CC=C3C(C#N)=C(N)C2(C#N)C#N)cc1 (stereo unspecified)	%	145
Cc1ccc(S(=O)(=O)NC(=O)NCc2ccc3c(c2)OCO3)cc1	%	91.6
Cc1cccn2c(=O)c3cc(C#N)c(=N)n(Cc4ccncc4)c3nc12	%	165
COc1ccc(Cl)cc1C(=O)NCCc1ccc(S(=O)(=O)NC(=O)NC2CCCCC2)cc1	%	80.7
O=C(O)CCSc1ccc2ccccc2n1	%	135
COCCCN1C(=O)C(O)=C(C(=O)c2ccco2)C1c1ccc(Br)cc1 (stereo unspecified)	%	117
COc1cc(C2C(C(=O)c3cccs3)=C(O)C(=O)N2c2cc(C)on2)ccc1O (stereo unspecified)	%	155
COc1ccc(/C(O)=C2/C(=O)C(=O)N(CCCN(C)C)C2c2cccc(Cl)c2)cc1OC (stereo unspecified)	%	155

GET /value?item= "c1ccc(SCc2nc3ccccc3[nH]2)nc1" &field=nuclei count returns 119

Value of nuclei count reported for the compound "CC(=O)N=c1sc(S(N)(=O)=O)nn1C" is 104

Entry under test: CCOC(=O)C1CCN(c2nc3ccccc3nc2C(C#N)C(=O)OC(C)C)CC1 (stereo unspecified) . Its nuclei count was 128

----------
TARGET_SYSTEM: Dual specificity protein phosphatase 6 (Homo sapiens)
ASSAY_COMMENT: DUSP6 inhibitors restoring Erk phosphorylation by chemical complementation, primary imaging in DUSP6-transfected HeLa (AID 609);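 on inhibition: phospho-Erk level distribution per well compared with pooled transfected vehicle control wells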
CONDITION_INFO: HeLa MKP-3 transfected, phospho-Erk imaging KS statistic; at 10 µM; stronger effect = higher value; cells stimulated with TPA for 15 min
OBSERVATION_TYPE: inhibition (%)
Express it in %; write the number only.

COMPOUND	UNIT_STRING	OBSERVED_VALUE
CC1(C)Cc2c(c(N3CCOCC3)nc3sc(C#N)c(N)c23)CS1	%	5.42

Please turn your attention to the following entry.
Value (inhibition, Dual specificity protein phosphatase 6 (Homo sapiens)) for record "COCCN(C(=O)Nc1ccccc1)c1ccccc1C" = -3.95

----------
ASSAY_COMMENT: DUSP6 inhibitors restoring Erk phosphorylation by chemical complementation, primary imaging in DUSP6-transfected HeLa (AID 609)
CONDITION_INFO: HeLa MKP-3 transfected, phospho-Erk imaging KS statistic; measured here: cell density z-score; at 10 µM; cells stimulated with TPA for 15 min
The following ranges of z-score define the classes used here: zone 1: < -0.2; zone 2: ≥ -0.2 and < 0.8; zone 3: ≥ 0.8

MOLECULE	GROUP
COc1ccc2cnn(-c3ccccc3C)c(=O)c2c1OC	zone 2
O=C(OCCN1CCOCC1)c1ccc(OCCN2CCOCC2)cc1	zone 1

Ask | Sort "Cn1c(=O)c2c(nc(SCCN3CCCCC3)n2Cc2ccc(Cl)cc2)n(C)c1=O" into one of the categories.
Reply | zone 2

Ask | Category of "Cc1cccc(OCC(=O)N2CCC(N3CCOCC3)CC2)c1" , please.
Reply | zone 3

----------
ASSAY_COMMENT: inhibitors of TNFa-induced NFkB p65 translocation, primary screen, imaging, HUVEC, MLSMR starter and 10KST1 sets (AID 438);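 further: compound added about 3h40 before a 20 min TNFalpha stimulation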
CONDITION_INFO: HUVEC TNFa-induced p65 nuclear translocation; measured here: nuclei count (cytotoxicity indicator), at 2.08 µM
// reported cell count for each item listed
Number only, no unit.

COMPOUND	OBSERVATION_TYPE	OBSERVED_VALUE
CSc1nc(N)c(C#N)c(-c2ccccc2Cl)c1C#N	cell count	361
CCCOc1cc(CN2CCCCC2)cc(C(C)=O)c1	cell count	662
CC(=O)OC(C)C[N+](C)(C)C (stereo unspecified)	cell count	551

Entry CCOc1ccc(/C(O)=C2/C(=O)C(=O)N(CCN(CC)CC)C2c2ccco2)cc1 (stereo unspecified) , cell count reported as 494

So for CCCCOc1ccc(C2CC(=O)N(C)C2=O)cc1 (stereo unspecified) , the logged cell count turned out to be 641

Form field cell count, entry "CC(C)Oc1ccc2c(=O)c(-c3ccccc3)coc2c1" : 646

----------
Readings of z-score for the listed compounds
ASSAY_COMMENT: DUSP6 inhibitors restoring Erk phosphorylation by chemical complementation, primary imaging in DUSP6-transfected HeLa (AID 609)
CONDITION_INFO: HeLa MKP-3 transfected, phospho-Erk imaging KS statistic; measured here: nuclear pErk red intensity z-score; at 10 µM; stronger effect = higher value; cells stimulated with TPA for 15 min
Provide a numeric answer; units are not to be included.

Before answering, review these 5 worked examples.
COMPOUND	OBSERVED_VALUE
COc1ccc(C2C=C(c3ccc(Cl)cc3)Nc3nc(NC(C)=O)nn32)cc1 (stereo unspecified)	0.747
CN1c2ccccc2N(C)C1c1c(O)ccc2ccccc12	0.412
CCOc1cccc(-c2nnc3sc(-c4ccco4)nn23)c1	-0.0575
Cc1cc(=O)[nH]c(SCC(=O)c2ccccc2)c1C#N	-0.58
CSc1nc(C)cc(OCCNS(=O)(=O)c2cc(C)ccc2C)n1	-1.02

The compound Cc1ccc(/C(O)=C2/C(=O)C(=O)N(Cc3ccco3)C2c2cccs2)cc1 (stereo unspecified) showed z-score equal to 1.58

# compound "Cc1nc(Nc2ncc3c(n2)CCCC3=O)nc2ccccc12" ; its z-score = 1.03

According to the records, this compound COC(=O)C1=C(C)N=C2SC(C)C(=O)N2C1/C=C/c1ccccc1OC (stereo unspecified) displays z-score of 0.497

The reported z-score of the compound COCCCN1C(=O)C(O)=C(C(=O)c2ccco2)C1c1ccc(Br)cc1 (stereo unspecified) was 0.315

Please fill in: z-score reported for "Nc1[nH]nc2nc(NCc3ccccc3)c3c(c12)CCN(Cc1ccccc1)C3" = -0.833

The compound listed as "CCOC(=O)c1c(C)n(C)c2ccc(O)c(S(=O)(=O)c3ccccc3)c12" has a reported z-score of 1.13

----------
# inhibition values compiled below
TARGET_SYSTEM: Dual specificity protein phosphatase 6 (Homo sapiens) (UniProt Q16828)
Sequence (Q16828 whole entry, looked up): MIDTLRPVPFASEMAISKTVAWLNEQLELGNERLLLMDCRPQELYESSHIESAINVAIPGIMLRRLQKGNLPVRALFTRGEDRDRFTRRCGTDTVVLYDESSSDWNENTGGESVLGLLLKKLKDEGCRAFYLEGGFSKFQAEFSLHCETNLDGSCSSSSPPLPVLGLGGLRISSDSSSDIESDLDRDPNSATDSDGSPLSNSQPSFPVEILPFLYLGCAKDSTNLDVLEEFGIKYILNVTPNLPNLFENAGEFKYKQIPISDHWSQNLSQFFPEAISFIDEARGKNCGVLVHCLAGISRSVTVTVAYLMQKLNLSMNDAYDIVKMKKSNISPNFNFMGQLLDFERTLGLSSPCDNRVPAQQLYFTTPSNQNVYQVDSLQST
ASSAY_COMMENT: DUSP6 inhibitors restoring Erk phosphorylation by chemical complementation, primary imaging in DUSP6-transfected HeLa (AID 609);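 on inhibition: phospho-Erk level distribution per well compared with pooled transfected vehicle control wells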
CONDITION_INFO: HeLa MKP-3 transfected, phospho-Erk imaging KS statistic; at 10 µM; stronger effect = higher value; cells stimulated with TPA for 15 min
Reply numerically in %, unit not repeated.

Past entries and their recorded results:
COMPOUND	OBSERVATION_TYPE	OBSERVED_VALUE
COc1cccc(-c2nc(N3CCCCC3)c3ccccc3n2)c1O	inhibition	1.6e-07
CC(C)OC(=O)C(CC(=O)O)NCc1ccccc1 (stereo unspecified)	inhibition	1.75
CN(C)c1nc(N(C)C)nc(N(C)C)n1	inhibition	11.3
CC(C)(C)NCC(=O)c1c[nH]c2ccccc12	inhibition	-1.75
COc1ccccc1N=Cc1nc(-c2ccccc2)oc1OC(C)=O	inhibition	13.2
CC(=O)[C@H]1CC[C@H]2[C@@H]3CCC4=CC(=O)CC[C@]4(C)[C@H]3[C@H](O)C[C@]12C	inhibition	7.39

Reported inhibition for "Cc1nc2ccccn2c(=O)c1CCN1CCC(C(=O)c2ccc(F)cc2)CC1" was 19

Memo: "CC1(C)Cc2c(C#N)c(OCC(=O)c3ccc(Cl)cc3)nc(-c3ccoc3)c2CO1" , reported inhibition: 13.2

The recorded inhibition for entry COc1ccc(/C(O)=C2/C(=O)C(=O)N(c3ncccn3)C2c2ccc(OC)c(OC)c2)cc1 (stereo unspecified) equals 0.671

The compound identified as "CCOc1ccc(Cn2c(O)cc(=O)[nH]c2=O)cc1" registered its inhibition at 14

# inhibition of "COc1cccc(-c2nnc3sc(-c4cccs4)nn23)c1" = -11.5
